- Test system: SN12C
- assay-notes: NCI tumour cell line growth inhibition, 48 h
Active and inactive are the calls of the source. Rule as the data show it: active = GI50 up to about 1.1 µM and inactive = higher.
Entry note: the call must match one of active, inactive

> print(dat)
                                   compound  system.name  category.label
1  COc1cc2c([C@@H](OC(=O)c3ccccc3)c3ccc4c(c3)OCO4)nccc2c(OC)c1OC        SN12C        inactive
2  Cn1ccnc1Sc1ccc(/C=N/NC(=O)c2ccccc2[N+](=O)[O-])cc1[N+](=O)[O-]        SN12C        inactive
3          c1ccc(C2=NCCc3cc4c(cc32)OCO4)cc1        SN12C        inactive

Qu. Kindly provide the recorded test outcome for the following compound: CC1=N[C@](C)(C2CC3C=CC2C3=O)COC1=O (some centres not stated)
Ans. inactive

Qu. Called result for "O=C(c1cccs1)N(C(=S)N1CCN(c2ccccn2)CC1)c1ccccc1"
Ans. inactive

Qu. Returns: the outcome recorded for "O=C(Nc1c(C(=O)NC2CCCCC2)[nH]c(=O)[nH]c1=O)c1ccc(Cl)cc1" in this assay.
Ans. inactive

Qu. Any idea what this test logged for "CCOC(=O)c1[nH]c(Br)c(-c2ccc(OC)c(OC)c2)c1Br" ?
Ans. active

Qu. // param item: CCOC(=O)C(NC(=O)Nc1ccc(Cl)c(Cl)c1)C(F)(F)F (configuration not stated) ; yields the recorded call
Ans. inactive

Qu. Lab log entry: "Cn1cnc([N+](=O)[O-])c1Sc1nc2cc(Cl)c(F)cc2[nH]1" — outcome as called in the assay?
Ans. inactive

---

- Test system: A498
- assay-notes: NCI tumour cell line growth inhibition, 48 h
Calls of active or inactive are those of the source. Rule as the data show it: active = GI50 up to about 1.1 µM and inactive = higher.
Just give me one of these, please: label 1 = active, label 0 = inactive

The examples below pair each entry with its known result.
molecule	category-label
Nc1cnc(Nc2cccc3ccccc23)o1	label 0
O=C1C=CC2(C=C1)CCC(=O)O2	label 0
CCOC(=O)C(NC(=O)Nc1ccc(Cl)c(Cl)c1)C(F)(F)F (stereo not drawn)	label 0
C[C@]12CC(C#N)C(=O)C(O)=C1CC[C@@H]1C2CC[C@@]2(C)C1CC[C@@H]2O (stereo partly drawn)	label 0
COC1C(OC(=O)c2ccc(C)[nH]2)C(O)C(Oc2ccc3c(O)c(NC(=O)c4c[nH]c(C(=O)Nc5c(O)c6ccc(OC7OC(C)(C)C(OC)C(OC(=O)c8ccc(C)[nH]8)C7O)c(C)c6oc5=O)c4C)c(=O)oc3c2C)OC1(C)C (stereo not drawn)	label 0
C[C@H](CC[C@@H](O)C(C)(C)O)[C@H]1CC[C@@]2(C)[C@@H]3CC=C4[C@@H](CC[C@H](OC5OC(CO)C(O)C(O)C5O)C4(C)C)[C@]3(C)C(=O)C[C@]12C (stereo partly drawn)	label 0
COc1cccc(OC)c1NC(=O)C(=O)Nn1c(NNC(=O)c2ccncc2)nc2ccccc2c1=O	label 0
COc1ccc(C2=NN(c3ccccc3)C[N+](c3ccc(C)cc3)=N2)cc1	label 0

Qu. Which outcome was assigned to "O=C(N/C(=C\c1cc(Cl)ccc1Cl)c1nc2cc(Cl)ccc2[nH]1)c1ccccc1" in this test?
Ans. label 0

Qu. Each molecule tested received a call. Report the one for CCOC(=O)c1cc(C2CCN(Cc3ccccc3)C2=S)c(C(=O)C=[N+]=[N-])[nH]1 (stereo not drawn) .
Ans. label 0

Qu. Entry "Fc1ccc2c(c1)SC1=Nc3sc4cc(F)ccc4[n+]3CN12" : call = ?
Ans. label 0

Qu. Please share the test call associated with "COCc1nc2c(OC)c(-c3nc4ccc(N5CCN(C)CC5)cc4[nH]3)cc(OC)c2[nH]1" .
Ans. label 0

Qu. Query: recorded result category for "CSc1c(CC(=O)Nc2ccc(Cl)cc2)n(Cc2ccccc2)c2ccccc12" in this test
Ans. label 0

Qu. For this molecule, state the assay outcome: "N#Cc1c(C#N)c(-c2ccccc2)n(-c2ccccc2)c1N"
Ans. label 0

Qu. For O=C1C2CCCCC2C(=O)N1n1c(Cc2ccc(Cl)cc2)n[nH]c1=O (stereo not drawn) , which call appears in the assay record?
Ans. label 0

Qu. Which outcome did this test record for the molecule COC(=O)C(C/C=C(\C)c1ccc(Cl)cc1)C(C)=O (stereo not drawn) ?
Ans. label 0

Qu. What is the recorded call for this molecule in the test? "O=c1ssc2ncccc12"
Ans. label 0

Qu. // param item: "COC(=O)c1cc2cc(OC)c(OC)cc2cc(C(=O)OC)c1=O" ; yields the recorded call
Ans. label 0

Qu. So what was the verdict on "N#C/C(=C1/Sc2c(nc[nH]c2=O)N1c1ccccc1)c1nc2ccccc2[nH]1" in this test?
Ans. label 0

Qu. Given "O=C1C[C@H](Sc2ccccc2)C2(OCCO2)[C@@H](Sc2ccccc2)C1" , state the outcome it received in this test.
Ans. label 0

Qu. What did the test return for N=C1OC(c2ccc3c(c2)OCO3)C(NNS(=O)(=O)c2ccccc2)=C1O (stereo not drawn) ?
Ans. label 0

Qu. State the result this test recorded for "c1ccc(C2=NCCc3cc4c(cc32)OCO4)cc1" .
Ans. label 0

Qu. Assay outcome for "CCOC(=O)c1c(N=C(S)Nc2ccccc2)sc2c1CCN(C)C2" : what was it?
Ans. label 0

Qu. Given "CSc1nnc(C(C#N)C#N)nn1" , state the outcome it received in this test.
Ans. label 0

Qu. What did this assay record as the result for "Nc1cc(CO)cc(Nc2c3ccccc3nc3occc23)c1" ?
Ans. label 0

Qu. Entry "Cn1ccnc1Sc1ccc(/C=N/NC(=O)c2ccccc2[N+](=O)[O-])cc1[N+](=O)[O-]" : call = ?
Ans. label 0
